System: Serine/threonine-protein kinase N2 (Homo sapiens, UniProt Q16513); further: in the data inactive means no Kd found up to 30 µM
Sequence (Q16513 whole entry): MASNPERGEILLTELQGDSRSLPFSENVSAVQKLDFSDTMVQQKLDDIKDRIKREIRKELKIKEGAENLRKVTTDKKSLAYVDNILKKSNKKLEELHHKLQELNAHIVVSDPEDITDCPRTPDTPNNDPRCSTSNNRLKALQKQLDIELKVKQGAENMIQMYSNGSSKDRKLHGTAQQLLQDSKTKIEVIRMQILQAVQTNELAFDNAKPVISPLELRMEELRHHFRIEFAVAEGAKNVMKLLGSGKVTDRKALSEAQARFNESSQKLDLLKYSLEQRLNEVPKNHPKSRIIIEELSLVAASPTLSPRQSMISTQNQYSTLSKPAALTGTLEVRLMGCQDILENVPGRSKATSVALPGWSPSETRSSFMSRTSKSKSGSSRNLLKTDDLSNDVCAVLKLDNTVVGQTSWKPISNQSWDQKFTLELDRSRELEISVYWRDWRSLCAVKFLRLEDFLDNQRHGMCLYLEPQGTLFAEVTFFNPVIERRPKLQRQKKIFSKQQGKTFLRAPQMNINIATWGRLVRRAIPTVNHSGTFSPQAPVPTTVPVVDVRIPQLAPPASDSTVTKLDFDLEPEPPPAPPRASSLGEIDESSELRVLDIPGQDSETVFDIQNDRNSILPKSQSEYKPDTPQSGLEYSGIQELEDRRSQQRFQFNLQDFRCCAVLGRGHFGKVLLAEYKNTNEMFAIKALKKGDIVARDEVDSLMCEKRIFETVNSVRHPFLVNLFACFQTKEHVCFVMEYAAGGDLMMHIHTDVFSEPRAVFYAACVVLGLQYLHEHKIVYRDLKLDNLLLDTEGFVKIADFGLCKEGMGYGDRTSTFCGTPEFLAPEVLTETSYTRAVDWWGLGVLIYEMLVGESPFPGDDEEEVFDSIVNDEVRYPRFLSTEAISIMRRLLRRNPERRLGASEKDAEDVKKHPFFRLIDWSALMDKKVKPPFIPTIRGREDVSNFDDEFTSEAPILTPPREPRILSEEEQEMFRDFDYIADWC
The source made the active and inactive calls.
Outcomes: active, inactive

# Compound, System, Discrete Label
rows = [
    ("O=c1[nH]ccc2cc(OC3CCNCC3)ccc12 [SAR-407899 FREE BASE]", "Serine/threonine-protein kinase N2 (Homo sapiens, UniProt Q16513)", "active"),
    ("COc1cc2c(Nc3ccc(Cl)c(Cl)c3F)ncnc2cc1OC[C@@H]1C[C@@H]2CN(C)C[C@@H]2C1", "Serine/threonine-protein kinase N2 (Homo sapiens, UniProt Q16513)", "inactive"),
    ("C=CC(=O)N1CCC[C@H](n2c(=O)n(-c3ccc(Oc4ccccc4)cc3)c3c(N)ncnc32)C1", "Serine/threonine-protein kinase N2 (Homo sapiens, UniProt Q16513)", "inactive"),
    ("CCNC(=O)C#Cc1ccc2c(c1)NC(=O)/C2=C(\\Nc1ccc(CN(C)C)cc1)c1ccccc1", "Serine/threonine-protein kinase N2 (Homo sapiens, UniProt Q16513)", "inactive"),
    ("COc1ccc(S(=O)(=O)N(C(C)=O)c2ccccc2/C=C/c2cc[n+]([O-])cc2)cc1", "Serine/threonine-protein kinase N2 (Homo sapiens, UniProt Q16513)", "inactive"),
    ("Cc1nc(Nc2n[nH]c3c2CN(C(=O)N[C@H](CN(C)C)c2ccccc2)C3(C)C)c2sccc2n1", "Serine/threonine-protein kinase N2 (Homo sapiens, UniProt Q16513)", "inactive"),
    ("Cc1nc2cc(-n3ncc(C(=O)c4cc5ccccc5[nH]4)c3N)ccc2[nH]1", "Serine/threonine-protein kinase N2 (Homo sapiens, UniProt Q16513)", "inactive"),
    ("FC(F)(F)c1ccc(/C=C/c2nc(COc3ccc(CCCCn4ccnn4)cc3)co2)cc1", "Serine/threonine-protein kinase N2 (Homo sapiens, UniProt Q16513)", "inactive"),
    ("Cc1nc(NC(=O)N2CCC[C@H]2C(N)=O)sc1-c1ccnc(C(C)(C)C(F)(F)F)c1", "Serine/threonine-protein kinase N2 (Homo sapiens, UniProt Q16513)", "inactive"),
    ("CCCCCCCCCCCCCCCCCCOP(=O)([O-])OC1CC[N+](C)(C)CC1", "Serine/threonine-protein kinase N2 (Homo sapiens, UniProt Q16513)", "inactive"),
    ("CC(=O)c1cnc2ccc(-c3cc(Cl)c(O)c(Cl)c3)nc2c1N[C@H]1CC[C@H](CN(C)C)CC1", "Serine/threonine-protein kinase N2 (Homo sapiens, UniProt Q16513)", "inactive"),
    ("COc1cc([C@@H]2c3cc4c(cc3[C@H](O)[C@H]3COC(=O)[C@@H]23)OCO4)cc(OC)c1OC", "Serine/threonine-protein kinase N2 (Homo sapiens, UniProt Q16513)", "inactive"),
]
